So I've got a bunch of compounds here, and I need their GI50 values.
- Tested on: Ba/F3 EGFR ASV ins cells
- experiment-notes: Cell proliferation, Ba/F3 EGFR ASV ins (CellTiter-Glo, 72 h);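 note: IL3-independent Ba/F3 cells transduced with EGFR V769_D770insASV, cellular ATP luminescence after compound exposure, growth relative to DMSO control with the day-0 baseline reading subtracted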
- Type: cell-based
- experimental-context: Ba/F3 EGFR, 72 h, read-out: EGFR Exon20 ASV insertion GI50 (nM)
Structures can show the parent of a compound that is named as a salt.
Unit nM implied. Number only.

Lab note: need GI50 with Ba/F3 EGFR ASV ins cells for entry C=CC(=O)Nc1cc(Nc2nccc(Nc3cc(Cl)c(F)cc3C(C)(C)O)n2)c(OC)cc1N1C[C@H]2CN(C)[C@H]2C1 [Compound 89, formic acid salt] , please look it up.
115

Form field - read-out: GI50; system: Ba/F3 EGFR ASV ins cells; submitted item: C=CC(=O)Nc1cc(Nc2ncnc(Nc3cc(Cl)c(F)cc3C(C)(O)CC)n2)c(OC)cc1N1CC[C@@H](N(C)C)C1 (stereo partly shown)
29.8

Given the entry CCOc1cc2ncc(C#N)c(Nc3ccc(OCc4ccccn4)c(Cl)c3)c2cc1NC(=O)/C=C/CN(C)C [Neratinib, reference compound] , what GI50 was observed with Ba/F3 EGFR ASV ins cells?
88

Return GI50 measured with Ba/F3 EGFR ASV ins cells given this compound: C=CC(=O)Nc1cc(Nc2nccc(Nc3cc(Cl)c(F)cc3C(C)(C)O)n2)c(OC)cc1N(C)C[C@H]1C[C@H](C)CN1C [Compound 90, formic acid salt]
83.1

Observed GI50 on Ba/F3 EGFR ASV ins cells for C=CC(=O)Nc1cc(Nc2nccc(Nc3cc(Cl)c(F)cc3C(C)(C)O)n2)c(OC)cc1N1CCC[C@@H]1CN1CCC1 [Compound 98, formic acid salt] , please.
129

Value wanted: GI50 (Ba/F3 EGFR ASV ins cells) of entry C=CC(=O)Nc1cc(Nc2nccc(Nc3cc(Cl)c(F)cc3C(C)(C)O)n2)c(OC)cc1N1C[C@H](F)C[C@@H]1CN(C)C [Compound 88, formic acid salt]
14

Form entry - test system: Ba/F3 EGFR ASV ins cells; read-out: GI50; compound: C=CC(=O)Nc1cc(Nc2ncnc(Nc3cc(Cl)c(F)cc3C3(O)CCC3)n2)c(OC)cc1N(C)CCN(C)C [Compound 72, formic acid salt]
42.3

Return GI50 measured with Ba/F3 EGFR ASV ins cells given this compound: C=CC(=O)Nc1cc(Nc2nccc(-c3cn(C)c4ccccc34)n2)c(OC)cc1N(C)CCN(C)C [AZD9291, osimertinib, reference compound]
207

For Ba/F3 EGFR ASV ins cells, provide GI50 of C=CC(=O)Nc1cc(Nc2nccc(Nc3cc(Cl)c(F)cc3C(C)(C)O)n2)c(OC)cc1N1C[C@@H]2CN(C)[C@@H]2C1 [Compound 97, formic acid salt] please.
86.7

Entry C=CC(=O)Nc1cc(Nc2nccc(Nc3cc(Cl)c(F)cc3C(C)(C)O)n2)c(OC)cc1N1C[C@H](N(C)C)C2(CC2)C1 [Compound 83, formic acid salt] , system Ba/F3 EGFR ASV ins cells: what GI50 was measured?
340
